src = patent US12213957B2

- Assay Method Text: Blood plasma levels in human patients
- Format: in vivo
- Test Parameters: plasma, oral, 5 mg/kg bw, monepantel as Zolvix 5 mg/kg bw daily, 2 h, average of patients, read-out: Blood plasma level of monepantel sulfone, Average
Quantity Measured: concentration at 2 h (ng/mL)
Quick reminder: number only, in ng/mL, skip the unit.

Briefly, concentration at 2 h measured for `C[C@](C#N)(COc1cc(C#N)ccc1C(F)(F)F)NC(=O)c1ccc(S(=O)(=O)C(F)(F)F)cc1` : 437

* * *

- Assay Method Text: Blood plasma levels in human patients
- Assay type: in vivo
- Test Parameters: plasma, oral, 5 mg/kg bw, monepantel as Zolvix 5 mg/kg bw daily, 24 h, average of patients, read-out: Blood plasma level of monepantel sulfone, Average
- Description: In a Phase 1 b clinical trial, monepantel administered as Zolvix daily to four human patients (PA02, PA04, PA06 and PA07) at 5 mg/kg bw provided an anticancer effect by computerised tomography (CT) scanning according to RECIST1.1 criteria. […] Blood plasma monepantel and monepantel sulfone levels of all four patients were recorded at intervals throughout treatment (Table 2).
Quantity Measured: concentration at 24 h (ng/mL)
Quick reminder: number only, in ng/mL, skip the unit.

Briefly, concentration at 24 h measured for C[C@](C#N)(COc1cc(C#N)ccc1C(F)(F)F)NC(=O)c1ccc(S(=O)(=O)C(F)(F)F)cc1 [MPLS, monepantel sulfone] : 226
